src = patent US12692274B2

Test system: NQO1 activation in BEAS-2B cells
measurement-protocol: BEAS-2B cellular MTT assay of NQO1 activation, 0% HSA
Type: cell-based
recorded-conditions: Homo sapiens, serum free, read-out: BEAS EC50 (nM) serum free
measured-endpoint: EC50 (nM)
Answers are plain numbers, in nM.

Some molecules with recorded EC50:
molecule | system-name | measured
CC(C)(C(=O)O)C1c2ccc3c(c2)CN(CC3)C(=O)c2ccc(cc2F)OCCCCCCn2nnc3cc1ccc32 (centres unmarked) | NQO1 activation in BEAS-2B cells | 2.7
Cc1c2ccc3c1nnn3CCCCCCOc1ccc(cc1)C(=O)N1CCc3ccc(cc3C1)C2CC(=O)O (centres unmarked) | NQO1 activation in BEAS-2B cells | 29.4
Cc1c2cnc3c1nnn3CCCCCCc1ccc(cc1)C(=O)N1CCc3ccc(cc3C1)C2CC(=O)O (centres unmarked) | NQO1 activation in BEAS-2B cells | 1.8
C[C@H](C(=O)O)[C@@H]1c2ccc3c(c2)CN(CC3)C(=O)c2ccc(cc2)OCCCCCn2nnc3cc1ccc32 | NQO1 activation in BEAS-2B cells | 153
Cc1cc2ccc1C(=O)N1CCc3ccc(cc3C1)[C@H](CC(=O)O)c1ccc3c(nnn3CCCCCC2)c1C | NQO1 activation in BEAS-2B cells | 19.4
O=C(O)CC1c2ccc3c(c2)CN(CC3)C(=O)c2ccc(cc2)OCCCCCn2nnc3cc1ccc32 (centres unmarked) | NQO1 activation in BEAS-2B cells | 547
Cc1c2ccc3c1nnn3CCCCCOc1ccc(c(Cl)c1)C(=O)N1CCc3ccc(cc3C1)C2CC(=O)O (centres unmarked) | NQO1 activation in BEAS-2B cells | 129
Cc1cc2ccc1C(=O)N1CCc3ccc(cc3C1)[C@H]([C@H](C)C(=O)O)c1ccc3c(nnn3CCCOCCO2)c1C | NQO1 activation in BEAS-2B cells | 1480
O=C(O)CC1c2ccc3c(c2)CN(CC3)C(=O)c2c(F)cc(cc2F)OCCCCCCn2nnc3cc1ccc32 (centres unmarked) | NQO1 activation in BEAS-2B cells | 75.7
O=C(O)C[C@H]1c2ccc(nc2)OCCCCCc2ccc(cc2)C(=O)N2CCc3ccc1cc3C2 | NQO1 activation in BEAS-2B cells | 79.2

Please go through the list and note EC50 for each molecule.
1. Cn1c2cc3cc(cnc31)CCCCCCn1nnc3c(Cl)c(ccc31)C(CC(=O)O)c1ccc3c(c1)CN(CC3)C2=O (centres unmarked)
2. Cc1c2ccc3c1nnn3CCCCCCOc1ccc(c(F)c1)C(=O)N1CCc3ccc(cc3C1)C2CC(=O)O (centres unmarked)

stdout:
[12.7, 0.6]

stdin: Which measured EC50 value corresponds to CC(C)(C(=O)O)[C@@H]1c2ccc3c(c2)CN(CC3)C(=O)c2c(F)cc(cc2F)OCCCCCCn2nnc3cc1ccc32 ?
stdout: 62.7

* * *

Test system: NQO1 activation in BEAS-2B cells
measurement-protocol: BEAS-2B cellular MTT assay of NQO1 activation, 0% HSA
Type: cell-based
recorded-conditions: Homo sapiens, serum free, read-out: BEAS EC50 (nM) serum free
Exercise: state measured log10 EC50 for each of the compounds provided.
Please note: log10 values; quantity EC50; unit nM.

Some compounds with recorded log10 EC50:
compound | system-name | log10 EC50
O=C(O)CC1c2ccc(nc2)OCCCCCc2ccc(cc2)C(=O)N2CCc3ccc1cc3C2 (centres unmarked) | NQO1 activation in BEAS-2B cells | 0.49
COc1cc2ccc1CCCCCn1nnc3c(C)c(cnc31)C(CC(=O)O)c1ccc3c(c1)CN(CC3)C2=O (centres unmarked) | NQO1 activation in BEAS-2B cells | 1.07
Cc1nc2ccc1C(CC(=O)O)c1ccc3c(c1)CN(CC3)C(=O)c1c(F)cc(cc1F)OCCCCO2 (centres unmarked) | NQO1 activation in BEAS-2B cells | 2.85
Cc1c2ccc3c1nnn3CCCCCCc1cc(F)c(c(F)c1)C(=O)N1CCc3ccc(cc3C1)C2CC(=O)O (centres unmarked) | NQO1 activation in BEAS-2B cells | 0.73
O=C(O)CC1c2ccc3c(c2)CN(CC3)C(=O)c2ccc3c(ccn3CCCCCCn3nnc4cc1ccc43)c2 (centres unmarked) | NQO1 activation in BEAS-2B cells | 2.78
Cc1c2ccc3c1nnn3CCCCCn1ccc3ccc(cc31)C(=O)N1CCc3ccc(cc3C1)C2CC(=O)O (centres unmarked) | NQO1 activation in BEAS-2B cells | 3.39

Please go through the list and note log10 EC50 for each compound.
1. O=C(O)CC1c2ccc(cc2)OCCCCCCOc2ccc(cc2)C(=O)N2CCc3ccc1cc3C2 (centres unmarked)
2. O=C(O)CC1c2cnc(nc2)OCCCCCc2ccc(c(F)c2)C(=O)N2CCc3ccc1cc3C2 (centres unmarked)
3. Cc1cc2ccc1C(=O)N1CCc3ccc(cc3C1)C(C(C)(C)C(=O)O)c1ccc3c(c1)nnn3CCCCCCO2 (centres unmarked)
4. Cc1c2ccc3c1nnn3CCCCCc1ccc(cc1)C(=O)N1CCc3ccc(cc3C1)[C@@H]2CC(=O)O
5. Cc1c2ccc3c1nnn3CCCCCCOc1ccc(c(F)c1)C(=O)N1CCc3ccc(cc3C1)[C@@H]2[C@H](C)C(=O)O
6. Cc1cc2ccc1C(=O)N1CCc3ccc(cc3C1)[C@H](CC(=O)O)c1ccc3c(nnn3CCC/C=C/C2)c1C
7. COc1cc2ccc1C(=O)N1CCc3ccc(cc3C1)C(CC(=O)O)c1ccc3c(nnn3CCCCC2)c1C (centres unmarked)
8. Cc1c2ccc3c1nnn3CCCCCCc1ccc(nc1)C(=O)N1CCc3ccc(cc3C1)C2CC(=O)O (centres unmarked)

stdout:
1: 0.94; 2: 2.76; 3: -0.22; 4: 0.67; 5: 1.64; 6: 2.17; 7: 1.06; 8: 2.58
